assay: Human pregnane X receptor (PXR) small molecule agonists, qHTS cell viability counter screen (AID 1346977); conditions: PXR-Luc HepG2 viability, CellTiter-Fluor, 24 h; series mostly up to 92.4 µM; also: nearly all actives have a fitted effect of over 50% in size
Records with an inconclusive call do not appear. The source made the active and inactive calls. Calls follow the shape of the dose curve; as a rule, active = well fitted cell-killing curve with a large enough effect in the repeat runs; inconclusive = weak or mixed curves, or effect the other way; inactive = flat fitted curve, though single readings scatter.
Classes used: YES for active, NO for inactive

[[record]]
compound = "Cc1cccc(CN2CCN(C(c3ccccc3)c3ccc(Cl)cc3)CC2)c1 (stereo not given)"
label_class = "NO"

[[record]]
compound = "CSc1ccc(/C=C2/C(C)=C(CC(=O)O)c3cc(F)ccc32)cc1"
label_class = "NO"

[[record]]
compound = "COC(=O)C1=C(C)NC(C)=C(C(=O)OCCc2ccc(N3CCN(C(c4ccccc4)c4ccccc4)CC3)cc2)C1c1cccc([N+](=O)[O-])c1 (stereo not given)"
label_class = "NO"

[[record]]
compound = "C=CC(=O)OCCn1c(=O)n(CCOC(=O)C=C)c(=O)n(CCOC(=O)C=C)c1=O"
label_class = "YES"

[[record]]
compound = "NC(=O)N1C(=O)C(C(=O)c2cc(Cl)cs2)c2cc(F)c(Cl)cc21 (stereo not given)"
label_class = "YES"

[[record]]
compound = "CC(=O)SC[C@@H](Cc1ccccc1)C(=O)NCC(=O)OCc1ccccc1"
label_class = "NO"

[[record]]
compound = "NC(=O)NS(=O)(=O)c1ccc(N)cc1"
label_class = "NO"

[[record]]
compound = "CC/C(=C(\\c1ccc(O)cc1)c1ccc(OCCN(C)C)cc1)c1ccccc1"
label_class = "YES"

[[record]]
compound = "Nc1ccccc1O"
label_class = "YES"

[[record]]
compound = "Cc1c(C)c2c(c(C)c1O)CCC(C)(COc1ccc(CC3SC(=O)NC3=O)cc1)O2 (stereo not given)"
label_class = "NO"


---

Test: qHTS assay to identify small molecule antagonists of the androgen receptor (AR) signaling pathway using the MDA cell line - cell viability counter screen (AID 743041; also: nearly all actives have a fitted effect of over 45% in size; also: potency is read from the fitted curve at half-maximal effect)
Conditions: MDA-kb2 viability, CellTiter-Fluor, 16 h, cells co-treated with R1881 androgen agonist; series mostly up to 70.3 µM
Text: National Center for Advancing Translational Sciences [NCATS] NIH Chemical Genomics Center [NCGC] U.S. Environmental Protection Agency [EPA] National Institutes of Environmental Health Sciences [NIEHS] National Toxicology Program [NTP] U.S. Food and Drug Administration [FDA] Androgen receptor (AR), a nuclear hormone receptor, plays a critical role in AR-dependent prostate cancer and other androgen related diseases. […]
Inconclusive results are not listed. Calls of active or inactive are those of the source. Calls come from the whole dose curve; as a rule, active = well fitted cell-killing curve with a large enough effect in the repeat runs; inconclusive = weak or mixed curves, or effect the other way; inactive = flat fitted curve, though single readings scatter.
reported-endpoint: Potency

[[record]]
compound = "Cc1onc(-c2ccccc2Cl)c1C(=O)N[C@@H]1C(=O)N2[C@@H]1SC(C)(C)[C@@H]2C(=O)O"
reported_endpoint = "Potency"
value_observed = "inactive"

[[record]]
compound = "CCC(C)Nc1ccc(NC(C)CC)cc1 (configuration not stated)"
reported_endpoint = "Potency"
value_observed = "19.7 µM (active)"

[[record]]
compound = "CCCCCCCC[N+](CCCCCCCC)(CCCCCCCC)CCCCCCCC"
reported_endpoint = "Potency"
value_observed = "4.32 µM (active)"

[[record]]
compound = "Oc1cccc(-c2c3nc(c(-c4cccc(O)c4)c4ccc([nH]4)c(-c4cccc(O)c4)c4nc(c(-c5cccc(O)c5)c5ccc2[nH]5)CC4)C=C3)c1"
reported_endpoint = "Potency"
value_observed = "23.7 µM (active)"

[[record]]
compound = "Oc1ccc2c(c1)-c1ccccc1C2"
reported_endpoint = "Potency"
value_observed = "inactive"

[[record]]
compound = "CC(C)(C)c1ccc(C(=O)CCCN2CCC(OC(c3ccccc3)c3ccccc3)CC2)cc1"
reported_endpoint = "Potency"
value_observed = "inactive"

[[record]]
compound = "COc1cccc(N)c1"
reported_endpoint = "Potency"
value_observed = "inactive"

[[record]]
compound = "CCCCCCOC(=O)c1ccc(O)cc1"
reported_endpoint = "Potency"
value_observed = "inactive"

[[record]]
compound = "CC(=O)SC[C@@H](Cc1ccccc1)C(=O)NCC(=O)OCc1ccccc1"
reported_endpoint = "Potency"
value_observed = "inactive"

[[record]]
compound = "Nc1c(Cl)cc(Cl)cc1Cl"
reported_endpoint = "Potency"
value_observed = "inactive"

[[record]]
compound = "CCCCCCCCCCCCCC[P+](CCCC)(CCCC)CCCC (tested in a mixture with another compound)"
reported_endpoint = "Potency"
value_observed = "5.48 µM (active)"

[[record]]
compound = "Cn1cc(C(=O)[C@@H]2CCc3nc[nH]c3C2)c2ccccc21"
reported_endpoint = "Potency"
value_observed = "inactive"

